Biological target: T1, human Dectin-1 (biosensor tests of Tables 3, 4A and 9; construct not stated) (human, UniProt Q9BXN2 66-247, limits assumed);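 further: Single-point dissociation rate (koff) fit for each variant binding domain, expressed as change versus the parental clone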
T1 construct: also called hDectin-1
T1 sequence (looked up): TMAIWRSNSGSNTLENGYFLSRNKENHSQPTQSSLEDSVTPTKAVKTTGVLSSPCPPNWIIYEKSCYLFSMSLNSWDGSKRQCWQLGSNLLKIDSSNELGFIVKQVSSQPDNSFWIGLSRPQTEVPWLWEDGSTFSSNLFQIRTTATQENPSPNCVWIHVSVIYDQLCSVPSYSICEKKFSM
Experiment: Octet
readout.label: delta (%)

* 2M24A.1.11 hFab (Fab, V domains shown, Fab; also called 2M24.1.11) VH: QVQLVQSGAEVKKPGASVKVSCKSSGYTFTAYYIHWVRQAPGQGLEWMGWINPNSGDTNYAQKFQGRITMTRDTSISTAYLELSRLRSDDTAVFYCARNSGSYSFGYWGQGTLVTVSS VL: DIQMTQSPSSVSASVGDRVTITCRASQGISSWLAWYQQKPGKAPKLLIFGASSLQSGVPSRFSGSGSGTDFTLTVSSLQPEDFATYYCQQAYSFPFTFGPGTKVDIE | 16
* 2M24A.1.12 hFab (Fab, V domains shown, Fab; also called 2M24.1.12) VH: QVQLVQSGAEVKKPGASVKVSCKSSGYTFTDYYIHWVRQAPGQGLEWMGWINPNSGATNYAQKFQGRITMTRDTSISTAYLELSRLRSDDTAVFYCARNSGSYSFGYWGQGTLVTVSS VL: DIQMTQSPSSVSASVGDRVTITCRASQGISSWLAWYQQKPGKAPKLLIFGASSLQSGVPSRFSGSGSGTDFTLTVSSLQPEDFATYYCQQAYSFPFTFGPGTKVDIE | 19
* 2M24A.1.22 (Fab, V domains shown, Fab; also called 2M24.1.22) VH: QVQLVQSGAEVKKPGASVKVSCKSSGYTFTDYYIHWVRQAPGQGLEWMGWINPNSGDTNYAQKFQGRITMTRDTSISTAYLELSRLRSDDTAVFYCARNSGSYSFGAWGQGTLVTVSS VL: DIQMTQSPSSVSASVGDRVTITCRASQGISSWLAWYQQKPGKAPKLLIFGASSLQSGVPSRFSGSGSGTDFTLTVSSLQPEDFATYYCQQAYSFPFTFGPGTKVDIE | 15
